From: ChEMBL document CHEMBL3507680

Experiment: Human HepG2 cell viability assay in 384 well format
Format: toxicity, cell-based
Set-up: dose 125 nL, time 70.5 hour; concentration not given beside the values
Settings: HepG2 cells, read-out: Inhibition
attribute_measured: cytotoxicity at 70.5 h (%)
Just the number please, in %, no unit attached.

# compound, test_result
records = [
    ("CCN1CCCn2c(nc(CNC(=O)c3cnoc3C)cc2=O)C1", 5.12),
    ("Cn1cc(C2CCCN2CCCc2nc(-c3cccs3)no2)cn1 (stereo not drawn)", -11.4),
    ("Cc1nc(-c2ccoc2)n(CC(=O)N(C)CC(C)C)c1C", -4.77),
]

Suppose we examine the compound O=C(CCO)N1CC[C@@H]2CN(C(=O)c3ccco3)CCO[C@@H]2C1 ; what cytotoxicity at 70.5 h value has been reported?
-4.78

Suppose we examine the compound CN(C)C[C@@H]1CN(C(=O)Cc2ccc3ccccc3c2)C[C@@H]1CO ; what cytotoxicity at 70.5 h value has been reported?
-8.64

Suppose we examine the compound O=S(=O)(NCC1CCOC1)N1CCc2ccccc2C1 (stereo not drawn) ; what cytotoxicity at 70.5 h value has been reported?
-0.92

Suppose we examine the compound CCOC(=O)NCCNC(=O)c1cc(Br)cn1C(C)C ; what cytotoxicity at 70.5 h value has been reported?
9.21

Suppose we examine the compound COc1cccc(CNC(C)Cn2cccn2)c1OC (stereo not drawn) ; what cytotoxicity at 70.5 h value has been reported?
2.73

* * *

Experiment: Human HepG2 cell viability assay in 384 well format
Type: toxicity, cell-based
Parameters: dose 125 nL, time 70.5 hour; concentration not given beside the values
Settings: HepG2 cells, read-out: Inhibition
attribute_measured: cytotoxicity at 70.5 h (%)
Just the number please, in %, no unit attached.

The cases that follow already have their cytotoxicity at 70.5 h on record.
# compound, cytotoxicity at 70.5 h (%)
measured = [
    ("CC(C)(C)C(=O)Nc1cnn(-c2ccccc2S(C)(=O)=O)c1", -9.09),
    ("CCCOC(=O)N1CCc2cccc(S(=O)(=O)N3CCOCC3)c2C1", -8.66),
    ("COc1ccc(CN2CCC(c3cc(O)nc(C)n3)C2)c(OC)c1 (stereo not drawn)", -3.26),
    ("Cc1nc(CN2C(=O)COC3(CCN(Cc4ccco4)CC3)C2C)cs1 (stereo not drawn)", -1.55),
    ("OCCOCc1n[nH]c2c1CN(Cc1ccco1)C2", 12.9),
    ("CC(C)Oc1ccc(CNC(=O)C2CCC(=O)N2)cn1 (stereo not drawn)", 23),
    ("COc1c(C2CC(=O)Nc3[nH]ncc32)cc2c(c1OC)OCO2 (stereo not drawn)", -13.5),
    ("O=C(O)[C@]12CN(CC3CCC3)C[C@H]1CN(c1cnccn1)C2", -4.33),
]

Okay, next one:
Suppose we examine the compound CC[C@@H](CO)NC(=O)c1coc(COc2ccc3sc(C)nc3c2)n1 ; what cytotoxicity at 70.5 h value has been reported?
-12.1

* * *

Assay: Human HepG2 cell viability assay in 384 well format
Format: toxicity, cell-based
Design: dose 125 nL, time 70.5 hour; concentration not given beside the values
Details: HepG2 cells, read-out: Inhibition
attribute_measured: cytotoxicity at 70.5 h (%)
Just the number please, in %, no unit attached.

# compound, cytotoxicity at 70.5 h / %
rows = [
    ("CCC(CC)C(=O)N1CCC(c2nn(CCN)c3nccnc23)C1 (stereo not given)", -4.84),
    ("O=C(CCc1nc2cccnc2[nH]1)Nc1ccc2c(c1)NC(=O)CO2", 8.55),
    ("COc1cccc(OCC2CCCN(C(C)=O)C2)c1 (stereo not given)", -18.9),
    ("c1cncc(N2CC[C@@H]3CN(CC4CC4)C[C@@H]3C2)c1", -26.1),
    ("c1coc(CN2CCC3(CC2)COCCN(CCN2CCCC2)C3)c1", -0.522),
]

Suppose we examine the compound O=C(CN1CCNCC1)N1CC[C@@H](c2ccc3ccccc3c2)[C@H](O)C1 ; what cytotoxicity at 70.5 h value has been reported?
-6.87

Suppose we examine the compound Cc1nc(CN2CCCC(N(C)CC(=O)Nc3cccnc3)C2)no1 (stereo not given) ; what cytotoxicity at 70.5 h value has been reported?
15.1

Suppose we examine the compound Cc1nc(CCCNC(=O)c2c(F)cccc2Br)n[nH]1 ; what cytotoxicity at 70.5 h value has been reported?
3.62

Suppose we examine the compound Cc1cnn(C2CN(CC(O)COCc3ccc4c(c3)OCO4)C2)c1 (stereo not given) ; what cytotoxicity at 70.5 h value has been reported?
-0.637

Suppose we examine the compound O=C(Cc1c(F)cccc1Cl)Nc1cccc(N2CCCC2)c1 ; what cytotoxicity at 70.5 h value has been reported?
-4.34

Suppose we examine the compound O=C1N(CCc2ccccc2)CCCC1(O)CNCc1ccc(F)cc1 (stereo not given) ; what cytotoxicity at 70.5 h value has been reported?
6.09

Suppose we examine the compound Cc1c(C(=O)N(C)CC(F)(F)F)nnn1-c1ccccc1Cl ; what cytotoxicity at 70.5 h value has been reported?
6.88

Suppose we examine the compound CCNC(=O)C1CCN(Cc2ccc(C(=O)Nc3nnc(C)s3)cc2)C1 (stereo not given) ; what cytotoxicity at 70.5 h value has been reported?
26.3

* * *

cytotoxicity at 70.5 h values by entry
Assay: Human HepG2 cell viability assay in 384 well format
Format: toxicity, cell-based
Set-up: dose 125 nL, time 70.5 hour; concentration not given beside the values
Conditions: HepG2 cells, read-out: Inhibition
Just the number please, in %, no unit attached.

The cases that follow already have their cytotoxicity at 70.5 h on record.
# molecule, cytotoxicity at 70.5 h (%)
rows = [
    ("CCn1ncc2c1C(COCC1CC1)CN(S(=O)(=O)N(C)C)C2 (configuration not stated)", -7.75),
    ("COC1COC2(CCN(Cc3ccccc3F)CC2)C1 (configuration not stated)", -8.4),
    ("CCCc1nc(CN(CC)Cc2ccc(S(C)(=O)=O)cc2)no1", 10.1),
    ("O=C([C@@H]1CCS(=O)(=O)[C@@H]2CN(c3ncccn3)C[C@@H]21)N1CCOCC1", -1.98),
    ("CCc1nc(C2CCCN2C(=O)c2cc3c(s2)CCC3)no1 (configuration not stated)", -2.7),
    ("CN1CCN([C@H]2CCN(C(=O)c3nn(C)cc3Cl)C[C@H]2CCCO)CC1", -10.4),
    ("CC(C)NS(=O)(=O)c1cc(C(=O)O)cc(-c2ccc(CN(C)C)cc2)c1", 16.9),
    ("Oc1nc(N2CCOCC2)nc2c1CCN(Cc1ccc(F)cc1)CC2", -2.02),
    ("Cc1nc(C(=O)N2CCN(c3ncccn3)[C@@H]3CS(=O)(=O)C[C@@H]32)cs1", -7.79),
    ("CCNC(=O)CCN1CCC(c2cc(N3CCOCC3)nc(C)n2)CC1", -7.37),
]

Suppose we examine the molecule CN(Cc1nnc(C2CCC2)o1)C(C(N)=O)c1cccc(F)c1 (configuration not stated) ; what cytotoxicity at 70.5 h value has been reported?
-1.86

Suppose we examine the molecule CCN1C(=O)CC(c2ccccc2)C12CCN(c1ncc(C)cn1)CC2 (configuration not stated) ; what cytotoxicity at 70.5 h value has been reported?
-3.7

Suppose we examine the molecule Cc1cccc(CC(=O)NC2CCN(C(=O)NC(C)(C)C)CC2)c1 ; what cytotoxicity at 70.5 h value has been reported?
12.2

Suppose we examine the molecule Cc1noc(C(C)N2CCN(Cc3ccco3)CC2)n1 (configuration not stated) ; what cytotoxicity at 70.5 h value has been reported?
-11.9

* * *

cytotoxicity at 70.5 h values by entry
Experiment: Human HepG2 cell viability assay in 384 well format
Format: toxicity, cell-based
Set-up: dose 125 nL, time 70.5 hour; concentration not given beside the values
Details: HepG2 cells, read-out: Inhibition
Just the number please, in %, no unit attached.

The cases that follow already have their cytotoxicity at 70.5 h on record.
# molecule, test_result
data = [
    ("O=C(Nc1ccccc1OC1CCOC1)c1ccon1 (stereo unspecified)", -1.12),
    ("O=C(NCCCNc1ccc(C(F)(F)F)cn1)c1ccc(F)cc1Br", -6.12),
]

Suppose we examine the molecule Cc1cnn(C(C)C2CC2)c1NC(=O)c1cnccn1 (stereo unspecified) ; what cytotoxicity at 70.5 h value has been reported?
-11.2

Suppose we examine the molecule CCOC(=O)C1CCN(C(=O)CN2CCCC2c2cc(C)no2)CC1 (stereo unspecified) ; what cytotoxicity at 70.5 h value has been reported?
-17.8

Suppose we examine the molecule COc1ncnc2c1CCN(C(=O)Cc1cccc(F)c1)CC2 ; what cytotoxicity at 70.5 h value has been reported?
-3.34

Suppose we examine the molecule CCSc1ccc(C(=O)N2CC[C@](C)(O)[C@H](C)C2)s1 ; what cytotoxicity at 70.5 h value has been reported?
-10.1

Suppose we examine the molecule CC(C(=O)Nc1ccc(Cl)cn1)N1CCc2nn(C)c(=O)cc2C1 (stereo unspecified) ; what cytotoxicity at 70.5 h value has been reported?
-2.78

Suppose we examine the molecule Cc1cnn(CC(=O)NCC2(O)CCCc3ccccc32)c1 (stereo unspecified) ; what cytotoxicity at 70.5 h value has been reported?
2.95

Suppose we examine the molecule COCCn1c(CN2CCCO2)cnc1S(=O)(=O)CC1CCCCC1 ; what cytotoxicity at 70.5 h value has been reported?
-2.9

Suppose we examine the molecule Cn1ccc(CN2CCC(NC(=O)Cc3ccccc3)CC2)cc1=O ; what cytotoxicity at 70.5 h value has been reported?
2.35

Suppose we examine the molecule Cc1cc(C(=O)N2C[C@H]3CCC[C@@]3(CO)C2)c2ccc(F)cc2n1 ; what cytotoxicity at 70.5 h value has been reported?
-1.1

Suppose we examine the molecule Cc1nnc2n1CCN(C(=O)c1cc(C)n(-c3ccccc3)c1C)C2 ; what cytotoxicity at 70.5 h value has been reported?
-4.87

Suppose we examine the molecule c1cnn(CCCO[C@@H]2CN(C3CCOCC3)[C@@H]3CCCO[C@@H]32)c1 ; what cytotoxicity at 70.5 h value has been reported?
4.39

Suppose we examine the molecule Fc1cccnc1N1CCOCC2(CCCN(c3nncs3)C2)C1 (stereo unspecified) ; what cytotoxicity at 70.5 h value has been reported?
-9.83

Suppose we examine the molecule CC(C)c1ccc(OCC(=O)N2CCOCC2c2ncon2)cc1 (stereo unspecified) ; what cytotoxicity at 70.5 h value has been reported?
-8.54

Suppose we examine the molecule CNC(=O)CN1CCC(NC(=O)Cc2ccccc2OC(C)C)CC1 ; what cytotoxicity at 70.5 h value has been reported?
-10.8

Suppose we examine the molecule COCCC(=O)N1CCC(Nc2ncc(Br)cn2)CC1 ; what cytotoxicity at 70.5 h value has been reported?
-0.761

Suppose we examine the molecule CCn1cc(NC(=O)NCC(C)O)cn1 (stereo unspecified) ; what cytotoxicity at 70.5 h value has been reported?
-1.8

Suppose we examine the molecule Cc1ncsc1C(=O)N(Cc1ccccc1)C1CC1 ; what cytotoxicity at 70.5 h value has been reported?
-19.8

Suppose we examine the molecule Cc1cc(C)n(CC2CN(Cc3cccc(C#N)c3)CCO2)n1 (stereo unspecified) ; what cytotoxicity at 70.5 h value has been reported?
-3.79
